measured-target: bovine trypsin (Bos taurus)
Sequence (P00760 24-246): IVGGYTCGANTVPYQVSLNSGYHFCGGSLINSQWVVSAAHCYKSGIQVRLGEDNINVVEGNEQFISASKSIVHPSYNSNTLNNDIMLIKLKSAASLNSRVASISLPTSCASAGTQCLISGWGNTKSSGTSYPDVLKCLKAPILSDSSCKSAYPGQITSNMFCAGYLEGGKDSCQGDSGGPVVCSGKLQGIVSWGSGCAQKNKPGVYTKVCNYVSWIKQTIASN
reported-endpoint: pKi
Notebook: values listed as pKi are -log10 of the concentration (mol/L).

input: Requested field: pKi. Item: N=C(N)N1CCC(CNc2cccc(N(Cc3ccccc3)S(=O)(=O)c3ccccc3)c2)CC1 [Example 11]
output: 5.28
